Plant response rating, Corn values for the compounds below.
- Test system: corn (Zea mays)
- Assay notes: Test C pre-/postemergence: corn
- Assay type: in vivo
- Condition context: Postemergence, 62 g ai/ha; scale 0 to 100 (0 no effect, 100 complete control)
Lab note: jot the number down without any unit.

Here is how some compounds turned out for Plant response rating, Corn.
Compound: Cc1nn(-c2ccc(F)cc2)nc1Oc1ccnc(C(F)(F)F)c1 [Compound 129]
Experimental value: 15

Compound: CCCc1nn(-c2ccc(F)cc2)nc1Cc1ccnc(C(F)(F)F)c1 [Compound 153]
Experimental value: 25

Compound: Cc1nn(-c2ccc(C(F)(F)F)c(F)c2)nc1Cc1ccnc(C(F)(F)F)c1 [Compound 162]
Experimental value: 30

Compound: Cc1nn(-c2ccc(C(F)(F)F)cc2)nc1Cc1ccnc(C(F)(F)F)c1 [Compound 47]
Experimental value: 15

Noted for CCCc1nn(-c2ccc(C(F)(F)F)c(F)c2)nc1Oc1ccnc(C(F)(F)F)c1 [Compound 185] : its Plant response rating, Corn reads 20

###

We begin with a simple list: items and their reported Plant response rating, Corn.
- Test system: corn (Zea mays)
- Assay notes: Test A pre-/postemergence: corn
- Type: in vivo
- Condition context: Preemergence, 500 g ai/ha; 0 to 100 scale (0 no effect, 100 complete control)
- Description: Seeds of barnyardgrass (Echinochloa crus-galli), crabgrass, large (large crabgrass, Digitaria sanguinalis), foxtail, giant (giant foxtail, Setaria faberii), morningglory (Ipomoea spp.), pigweed (Amaranthus retroflexus), velvetleaf (Abutilon theophrasti), wheat (Triticum aestivum), and corn (Zea mays) were planted into a blend of loam soil and sand and treated preemergence with a directed soil spray using test chemicals formulated in a non-phytotoxic solvent mixture which included a surfactant. […]
Answer with the value's number alone.

Smi: CCCc1nn(-c2ccc(F)cc2)nc1Cc1cccc(C(F)(F)F)c1
Experimental value: 20
//
Smi: Cc1nn(-c2ccc(F)c(F)c2)nc1Oc1ccnc(C(F)(F)F)c1
Experimental value: 40
//
Smi: Cc1nn(-c2ccc(F)cc2)nc1Oc1cc(C(F)(F)F)ccn1
Experimental value: 0

Form: molecule = CC(C)c1nn(-c2ccc(F)cc2)nc1Cc1ccnc(C(F)(F)F)c1 ; Plant response rating, Corn = 0

For this molecule ( CCc1nn(-c2ccc(F)cc2)nc1Cc1cccc(C(F)(F)F)c1 ), measured Plant response rating, Corn is 0

Plant response rating, Corn recorded for this molecule, Cc1nn(-c2ccnc(C(F)(F)F)c2)nc1Cc1ccnc(C(F)(F)F)c1 , is 0

Memo: CC(C)c1nn(-c2ccc(F)cc2)nc1Cc1cccc(C(F)(F)F)c1 , reported Plant response rating, Corn: 0

response.value for CCc1nn(-c2cccc(C(F)(F)F)c2)nc1Cc1cccc(C(F)(F)F)c1 (field: Plant response rating, Corn) = 20

Input COCc1nn(-c2ccc(F)cc2)nc1Oc1ccnc(C(F)(F)F)c1 . Output Plant response rating, Corn: 10

For Cc1nn(-c2ccc(C(F)(F)F)c(F)c2)nc1Cc1ccnc(C(F)(F)F)c1 the molecule record lists Plant response rating, Corn as 30

###

- Tested on: mustard, wild (wild mustard, Sinapis arvensis)
- Assay notes: Test D pre-/postemergence: mustard, wild
- Type: in vivo
- Condition context: Postemergence, 62 g ai/ha; scale 0 to 100 (0 no effect, 100 complete control)
This section presents molecules with their documented Plant response rating: Mustard, Wild values.
In your answer, state the number alone without any accompanying words.

// field: Plant response rating: Mustard, Wild; key: Cc1nn(-c2ccc(F)c(C(F)(F)F)c2)nc1Oc1ccnc(C(F)(F)F)c1 ; value = 100

What the record says about Cc1nn(-c2ccnc(C(F)(F)F)c2)nc1Cc1ccnc(C(F)(F)F)c1 : Plant response rating: Mustard, Wild is 80

Reported Plant response rating: Mustard, Wild of Cc1nn(-c2ccc(F)cc2)nc1Cc1ccnc(C(F)(F)F)c1 : 90

For reference, reported Plant response rating: Mustard, Wild for Cc1nn(-c2ccc(F)c(F)c2)nc1Oc1ccnc(C(F)(F)F)c1 stands at 90

Value of measured Plant response rating: Mustard, Wild for the entry CCOc1nn(-c2ccc(F)cc2)nc1Cc1ccnc(C(F)F)c1 : 80

Data origin: patent US9302999B2
